Target: Corticotropin-releasing factor receptor 1 (Homo sapiens)
Sequence (P34998 whole entry): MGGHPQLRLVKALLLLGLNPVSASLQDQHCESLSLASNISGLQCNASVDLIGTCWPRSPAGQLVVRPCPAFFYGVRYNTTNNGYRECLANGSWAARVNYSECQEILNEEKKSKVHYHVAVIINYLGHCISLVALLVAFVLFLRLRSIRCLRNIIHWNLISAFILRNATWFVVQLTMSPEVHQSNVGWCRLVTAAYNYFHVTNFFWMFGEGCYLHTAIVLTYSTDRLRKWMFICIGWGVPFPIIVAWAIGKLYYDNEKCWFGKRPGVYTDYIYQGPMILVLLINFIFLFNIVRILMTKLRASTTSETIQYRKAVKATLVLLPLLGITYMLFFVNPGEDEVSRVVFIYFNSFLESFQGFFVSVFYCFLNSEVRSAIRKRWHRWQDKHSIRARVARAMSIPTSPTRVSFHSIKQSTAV
Experiment: Binding affinity at human CRF1 receptor (CRFR1) on HeLA cell membranes.
Format: cell-based
Bridge positions count the residues as written; N and C are the ends. Square brackets hold non-standard residues; d marks the D form. Peptide text beside a SMILES is read from it. Nle = CCCC[C@H](N)C(=O)O
# Ki per record follows

Below, 2 compounds whose answers are already recorded.
{"columns": ["compound", "measurement_kind", "obs_value"],
 "data": [
  ["CCCC[C@H](NC(=O)[C@H](CC(C)C)NC(=O)[C@H](CCCCN)NC(=O)[C@H](CCCN=C(N)N)NC(=O)[C@H](CCC(N)=O)NC(=O)[C@@H]1CCCCNC(=O)CC[C@H](NC(C)=O)C(=O)N[C@@H](C)C(=O)N[C@@H](Cc2c[nH]cn2)C(=O)N1)C(=O)N[C@@H](CCC(=O)O)C(=O)N[C@H](C(=O)N[C@H](C(N)=O)[C@@H](C)CC)[C@@H](C)CC (Ac-EAHKQRKL[Nle]EII-NH2; lactam 1-4)", "Ki", "> 1000 nM"],
  ["CCCC[C@H](NC(=O)[C@H](CC(C)C)NC(=O)[C@H](CCCCN)NC(=O)[C@H](CCCN=C(N)N)NC(=O)[C@H](CC(N)=O)NC(=O)[C@@H]1CCCCNC(=O)CC[C@H](NC(C)=O)C(=O)N[C@@H](CC(=O)O)C(=O)N[C@@H](Cc2c[nH]cn2)C(=O)N1)C(=O)N[C@@H](CCC(=O)O)C(=O)N[C@H](C(=O)N[C@H](C(N)=O)[C@@H](C)CC)[C@@H](C)CC (Ac-EDHKNRKL[Nle]EII-NH2; lactam 1-4)", "Ki", "> 1000 nM"]
]}

// next item, Ki requested
Query: Report Ki for CCCC[C@H](NC(=O)[C@H](CC(C)C)NC(=O)[C@H](CCCCN)NC(=O)[C@H](CCCN=C(N)N)NC(=O)[C@H](CC(=O)O)NC(=O)[C@@H]1CCCCNC(=O)CC[C@H](NC(C)=O)C(=O)N[C@@H](C)C(=O)N[C@@H](Cc2c[nH]cn2)C(=O)N1)C(=O)N[C@@H](CCC(=O)O)C(=O)N[C@H](C(=O)N[C@H](C(N)=O)[C@@H](C)CC)[C@@H](C)CC (Ac-EAHKDRKL[Nle]EII-NH2; lactam 1-4) please.
Response: > 1000 nM

* * *

Target: Corticotropin-releasing factor receptor 1 (Homo sapiens)
Assay: Binding affinity at human CRF1 receptor (CRFR1) on HeLA cell membranes.
Format: cell-based
Conditions: hela
Bridge positions count the residues as written; N and C are the ends. Square brackets hold non-standard residues; d marks the D form. Peptide text beside a SMILES is read from it. ξ: configuration not given here. ξR = N=C(N)NCCCC(N)C(=O)O; Nle = CCCC[C@H](N)C(=O)O
Ki: recorded values
Return type: number; implicit unit nM.

{"columns": ["molecule", "Ki [nM]"],
 "data": [
  ["CCCC[C@H](NC(=O)[C@H](CC(C)C)NC(=O)[C@H](CCCCN)NC(=O)[C@H](CCCNC(=N)N)NC(=O)[C@H](CC(C)C)NC(=O)[C@@H]1CCCCNC(=O)CC[C@H](NC(C)=O)C(=O)N[C@@H](C)C(=O)N[C@@H](CC(C)C)C(=O)N1)C(=O)N[C@@H](CCC(=O)O)C(=O)N[C@H](C(=O)N[C@H](C(N)=O)[C@@H](C)CC)[C@@H](C)CC (Ac-EALKLRKL[Nle]EII-NH2; lactam 1-4)", 48.9],
  ["CC[C@H](C)[C@H](NC(=O)[C@@H](NC(=O)[C@H](CC(=O)O)NC(=O)[C@H](CC1CCCCC1)NC(=O)[C@H](CC(C)C)NC(=O)[C@H](CCCCN)NC(=O)[C@H](CCCNC(=N)N)NC(=O)[C@H](CC(C)C)NC(=O)[C@@H]1CCCCNC(=O)CC[C@H](NC(C)=O)C(=O)N[C@H](C)C(=O)N[C@@H](CCC(=O)O)C(=O)N1)[C@@H](C)CC)C(N)=O", 3.1]
]}

# input for lookup
Query: # Ki lookup, item CCCC[C@H](NC(=O)[C@H](CC(C)C)NC(=O)[C@H](CCCCN)NC(=O)C(CCCN=C(N)N)NC(=O)[C@H](CC(N)=O)NC(=O)[C@@H]1CCCCNC(=O)CC[C@H](NC(C)=O)C(=O)N[C@@H](C)C(=O)N[C@@H](CCCCN)C(=O)N1)C(=O)N[C@@H](CCC(=O)O)C(=O)N[C@H](C(=O)N[C@H](C(N)=O)[C@@H](C)CC)[C@@H](C)CC (some centres undefined) (Ac-EAKKN[ξR]KL[Nle]EII-NH2; lactam 1-4)
Response: 44.8

* * *

Target: Corticotropin-releasing factor receptor 1 (Homo sapiens, UniProt P34998)
Assay: Binding affinity at human CRF1 receptor (CRFR1) on HeLA cell membranes.
Assay type: cell-based
Conditions: hela
Bridge positions count the residues as written; N and C are the ends. Square brackets hold non-standard residues; d marks the D form. Peptide text beside a SMILES is read from it. Cha = N[C@@H](CC1CCCCC1)C(=O)O
measurement_kind: Ki (nM)
Number only, in nM; omit the unit.

Query: So what's the measured Ki for this one? CC[C@H](C)[C@H](NC(=O)[C@@H](NC(=O)[C@H](CC(=O)O)NC(=O)[C@H](CC1CCCCC1)NC(=O)[C@H](CC(C)C)NC(=O)[C@H](CCCCN)NC(=O)[C@H](CCCNC(=N)N)NC(=O)[C@H](CC(N)=O)NC(=O)[C@@H]1CCCCNC(=O)CC[C@H](NC(C)=O)C(=O)N[C@@H](C)C(=O)N[C@@H](CCC(=O)O)C(=O)N1)[C@@H](C)CC)C(N)=O (Ac-EAEKNRKL[Cha]DII-NH2; lactam 1-4)
Response: 5.5

* * *

Biological target: Corticotropin-releasing factor receptor 1 (Homo sapiens, UniProt P34998)
Test: Binding affinity at human CRF1 receptor (CRFR1) on HeLA cell membranes.
Format: cell-based
Bridge positions count the residues as written; N and C are the ends. Square brackets hold non-standard residues; d marks the D form. Peptide text beside a SMILES is read from it. Nle = CCCC[C@H](N)C(=O)O
measurement_kind: Ki

Query: Which measured Ki belongs to CCCC[C@H](NC(=O)[C@H](CC(C)C)NC(=O)[C@H](CCCCN)NC(=O)[C@H](CCCN=C(N)N)NC(=O)[C@H](CC(C)C)NC(=O)[C@@H]1CCCCNC(=O)CC[C@H](NC(C)=O)C(=O)N[C@@H](C)C(=O)N[C@@H](Cc2c[nH]cn2)C(=O)N1)C(=O)N[C@@H](CCC(=O)O)C(=O)N[C@H](C(=O)N[C@H](C(N)=O)[C@@H](C)CC)[C@@H](C)CC (Ac-EAHKLRKL[Nle]EII-NH2; lactam 1-4) , tested on Corticotropin-releasing factor receptor 1 (Homo sapiens, UniProt P34998)?
Response: > 1000 nM
